// provenance: patent US6380181B1

test system: Serratia marcescens SG 621; assay: Microdilution test (MIC); format: cell-based
experimental-readout: MIC values, microdilution test (µg/mL)
The reply should be a number in µg/mL, with the unit left off.

Would you mind telling me what MIC values, microdilution test value was observed for CC(=O)Oc1cccc(C(=O)N[C@@H](C)C(=O)N[C@@H](C(=O)N[C@@H]2C(=O)N3[C@@H]2SC(C)(C)[C@@H]3C(=O)O)c2ccccc2)c1OC(C)=O ? 50

Could you tell me which MIC values, microdilution test is on file for CC(=O)Oc1cccc(C(=O)NCCCC[C@H](NC(=O)c2cccc(OC(C)=O)c2OC(C)=O)C(=O)N[C@@H](C(=O)N[C@@H]2C(=O)N3[C@@H]2SC(C)(C)[C@@H]3C(=O)O)c2ccccc2)c1OC(C)=O ? 25

// returns reported MIC values, microdilution test for input CC(=O)Oc1cccc(C(=O)Nc2ccc(C(=O)N[C@@H](C(=O)N[C@@H]3C(=O)N4[C@@H]3SC(C)(C)[C@@H]4C(=O)O)c3ccccc3)cc2)c1OC(C)=O 25

Requested read-out: MIC values, microdilution test. Entry: CC(=O)Oc1cccc(C(=O)Nc2ccccc2C(=O)N[C@@H](C(=O)N[C@@H]2C(=O)N3[C@@H]2SC(C)(C)[C@@H]3C(=O)O)c2ccccc2)c1OC(C)=O 6.25

Endpoint output: MIC values, microdilution test of COC(=O)Oc1cccc(C(=O)N2COC[C@H]2C(=O)N[C@@H](C(=O)N[C@@H]2C(=O)N3[C@@H]2SC(C)(C)[C@@H]3C(=O)O)c2ccccc2)c1OC(=O)OC . Value? 50

Data request, read-out MIC values, microdilution test, for CC(=O)OC[C@H](NC(=O)c1cccc(OC(C)=O)c1OC(C)=O)C(=O)N[C@@H](C(=O)N[C@@H]1C(=O)N2[C@@H]1SC(C)(C)[C@@H]2C(=O)O)c1ccccc1 25

---

Would you kindly list Growth areas of siderophore indicator strains (diameter) for each of these molecules?
test system: Proteus vulgaris 718 (wild); assay type: cell-based; conditions: Proteus vul. 718
Answer with a number only, understood to be in mm.

What Growth areas of siderophore indicator strains (diameter) value was documented for this molecule, CC(=O)Oc1ccc(C=Nc2ccc(C(=O)O)cc2)cc1OC(C)=O ? 25

What value of Growth areas of siderophore indicator strains (diameter) has been reported for the following molecule? COC(=O)Oc1ccc(C=Nc2cc(N=Cc3ccc(OC(=O)OC)c(OC(=O)OC)c3)cc(C(=O)O)c2)cc1OC(=O)OC 24

What value of Growth areas of siderophore indicator strains (diameter) has been reported for the following molecule? CC(=O)Oc1ccc(N=Cc2cc(C(=O)O)cc(O)c2O)cc1OC(C)=O 22

---

Tested on: E. coli mutant PLB3268 ompF++
Format: cell-based
Conditions: E. coli mutant PLB3268 ompF++ (ompF super-expressed)
Source text: The efficacy against β-lactamase formers and against multi-resistant germs is therefore due to a new type of mechanism for overcoming the penetration resistance, by means of which the ratio of active ingredient to enzyme in the bacterial cell is influenced so that not all antibiotic molecules are inactivated before they reach their target. PLB268: ompF- was super-expressed.
experimental-readout: inhibition spot diameter in agar diffusion test

Can you look up the measured inhibition spot diameter in agar diffusion test of CC1(C)S[C@@H]2[C@H](NC(=O)[C@H](N)c3ccccc3)C(=O)N2[C@H]1C(=O)O [Ampicillin, reference compound] for me? 17.5 mm

Field request: inhibition spot diameter in agar diffusion test | item: CC(=O)Oc1cccc(C(=O)N[C@@H](C)C(=O)N[C@@H](C(=O)N[C@@H]2C(=O)N3[C@@H]2SC(C)(C)[C@@H]3C(=O)O)c2ccccc2)c1OC(C)=O 14 mm

Can you share its inhibition spot diameter in agar diffusion test? I mean this molecule: CC1(C)S[C@@H]2[C@H](NC(=O)[C@H](NC(=O)N3CCNC3=O)c3ccccc3)C(=O)N2[C@H]1C(=O)O [Azlocillin, reference compound] 17.5 mm

So what's the measured inhibition spot diameter in agar diffusion test for this one? CC(=O)Oc1cccc(C(=O)Nc2ccccc2C(=O)N[C@@H](C(=O)N[C@@H]2C(=O)N3[C@@H]2SC(C)(C)[C@@H]3C(=O)O)c2ccccc2)c1OC(C)=O 13 mm

Sample CC(=O)Oc1cccc(C(=O)Nc2ccc(C(=O)N[C@@H](C(=O)N[C@@H]3C(=O)N4[C@@H]3SC(C)(C)[C@@H]4C(=O)O)c3ccccc3)cc2)c1OC(C)=O — what was its inhibition spot diameter in agar diffusion test? 14 mm

---

tested on: Pseudomonas aeruginosa SG 137 (carbenicillin-resistant); test: Agar diffusion test; type: cell-based; conditions: concentration 100 μg/ml; P. aeruginosa SG 137
experimental-readout: inhibition spot diameter in the agar diffusion test (mm)
Quick reminder: number only, in mm, skip the unit.

Can you look up inhibition spot diameter in the agar diffusion test on Pseudomonas aeruginosa SG 137 (carbenicillin-resistant) for CC(=O)Oc1cccc(C(=O)N[C@@H](C)C(=O)N[C@@H](C(=O)N[C@@H]2C(=O)N3[C@@H]2SC(C)(C)[C@@H]3C(=O)O)c2ccccc2)c1OC(C)=O ? 22

API: value(readout= inhibition spot diameter in the agar diffusion test, system= Pseudomonas aeruginosa SG 137 (carbenicillin-resistant), query= CC(=O)Oc1cccc(C(=O)Nc2ccc(C(=O)N[C@@H](C(=O)N[C@@H]3C(=O)N4[C@@H]3SC(C)(C)[C@@H]4C(=O)O)c3ccccc3)cc2)c1OC(C)=O ) 28

Please provide the recorded inhibition spot diameter in the agar diffusion test for CC(=O)Oc1cccc(C(=O)Nc2cc(NC(=O)c3cccc(OC(C)=O)c3OC(C)=O)cc(C(=O)N[C@@H](C(=O)N[C@@H]3C(=O)N4[C@@H]3SC(C)(C)[C@@H]4C(=O)O)c3ccccc3)c2)c1OC(C)=O , tested on Pseudomonas aeruginosa SG 137 (carbenicillin-resistant). 25

// lookup inhibition spot diameter in the agar diffusion test | system=Pseudomonas aeruginosa SG 137 (carbenicillin-resistant) | key= CC1(C)S[C@@H]2[C@H](NC(=O)[C@H](NC(=O)N3CCNC3=O)c3ccccc3)C(=O)N2[C@H]1C(=O)O [Azlocillin, reference compound] 17

For the record CC(=O)Oc1cccc(C(=O)NCCCC[C@H](NC(=O)c2cccc(OC(C)=O)c2OC(C)=O)C(=O)N[C@@H](C(=O)N[C@@H]2C(=O)N3[C@@H]2SC(C)(C)[C@@H]3C(=O)O)c2ccc(O)cc2)c1OC(C)=O , what value of inhibition spot diameter in the agar diffusion test is listed for Pseudomonas aeruginosa SG 137 (carbenicillin-resistant)? 31
